system: MCF10A; experiment: one-nucleolus phenotype percent effect (relative to siNT 0% and siNOL11 100%); higher = more cells with one nucleolus (ribosome biogenesis inhibition); settings: 20 nM; 72 h
Binary call on one-nucleolus phenotype percent effect: 1 from -10% upward, 0 beneath that.

* AAAAUUUCUUUCACUACUUAG [hsa-miR-3606-3p] | 0
* GCUUCUGUAGUGUAGUC [hsa-miR-3182] | 0
* UGUGGACAGUGAGGUAGAGGGAGU [hsa-miR-3138] | 1
* CGGGGCCGUAGCACUGUCUGAGA [hsa-miR-128-1-5p] | 1
* ACUGGACUUGGAGGCAGAA [hsa-miR-378b] | 1
* UUAUAAUACAACCUGAUAAGUG [hsa-miR-374a-5p] | 0
* CAGGGCAGGGAAGGUGGGAGAG [hsa-miR-6879-5p] | 0

====

tested on: MCF10A; assay: percent viability (nuclei count relative to siNT); higher = more viable cells; conditions: 20 nM; 72 h
The reader will find reported percent viability values listed item by item below.
Attribute Measured: percent viability (%)

• AGCAAGGCGGCAUCUCUCUGAU [hsa-miR-4708-3p] = 43.7
• UGUUGUACUUUUUUUUUUGUUC [hsa-miR-3613-5p] = 114
• AUUGGGAACAUUUUGCAUGUAU [hsa-miR-450a-1-3p] = 95
• AGGGACGGGACGCGGUGCAGUG [hsa-miR-92b-5p] = 75.4
• AGGCACCAGCCAGGCAUUGCUCAGC [hsa-miR-593-5p] = 40.2
• CUCGGGGCAGGCGGCUGGGAGCG [hsa-miR-6727-5p] = 74.2
• GGUCCAGAGGGGAGAUAGGUUC [hsa-miR-198] = 51.6
• UCAAGUGUCAUCUGUCCCUAG [hsa-miR-6513-3p] = 126
• AGGAGAUCCUGGGUU [hsa-miR-3676-5p] = 30.1

====

tested on: MCF10A; experiment: 5+ nucleoli phenotype percent effect (relative to siNT 0% and siKIF11 100%); higher = more cells with five or more nucleoli; conditions: 20 nM; 72 h
Attribute Measured: 5+ nucleoli phenotype percent effect (%)

• AGAGGCUGAGAAGGUGAUGUUG [hsa-miR-6884-5p] = -24.7
• CUAUGGCGAGACUGGCAUGUACUC [hsa-miR-8074] = 26.4
• UCUAUUCCCCACUCUCCCCAG [hsa-miR-6731-3p] = -13.6
• CCUAGUAGGUGUCCAGUAAGUGU [hsa-miR-325] = 25
• UGGGGGAGUGCAGUGAUUGUGG [hsa-miR-5698] = 43.2
• CCUGCGAGUCUCCGGCGGUGG [hsa-miR-6068] = 24.3
• GUGGAAAGCAUGCAUCCAGGGUGU [hsa-miR-3978] = -30.5
• UCAGCUACUACCUCUAUUAGG [hsa-miR-5690] = 15.5

====

The reader will find reported one-nucleolus phenotype percent effect values listed item by item below.
tested on: MCF10A; assay: one-nucleolus phenotype percent effect (relative to siNT 0% and siNOL11 100%); higher = more cells with one nucleolus (ribosome biogenesis inhibition); settings: 20 nM; 72 h
Attribute Measured: one-nucleolus phenotype percent effect

• GGGUCCCGGGGAGGGGGG [hsa-miR-4281] = -17.2%
• AGGGCCGAAGGGUGGAAGCUGC [hsa-miR-6877-5p] = 10.5%
• AAAACUGCAGUUACUUUUGC [hsa-miR-548av-3p] = -20.6%
• ACCCCACUCCUGGUACC [hsa-miR-4286] = -13.8%
• UAGUGCAAUAUUGCUUAUAGGGU [hsa-miR-454-3p] = -20.8%
• UGUGCAAAUCCAUGCAAAACUGA [hsa-miR-19b-3p] = 4.13%
• GUGACUGAUACCUUGGAGGCAU [hsa-miR-4439] = -2.03%
• AUGUGCCUGAGGGAGUAAGACA [hsa-miR-550b-2-5p] = 9.16%
• CAGCAGGGGAGAGAGAGGAGUC [hsa-miR-6510-5p] = 20.8%
• UGAGCUAAAUGUGUGCUGGGA [hsa-miR-610] = -14.8%
• UAGCACCAUUUGAAAUCAGUGUU [hsa-miR-29b-3p] = -20.6%
• AAAAGUAAUUGCGGAUUUUGCC [hsa-miR-548i] = -17.1%

====

system: MCF10A; assay: one-nucleolus phenotype percent effect (relative to siNT 0% and siNOL11 100%); higher = more cells with one nucleolus (ribosome biogenesis inhibition); conditions: 20 nM; 72 h
Attribute Measured: one-nucleolus phenotype percent effect (%)

• UGGGCUGGCAGGGCAAGUGCUG [hsa-miR-4498] = 38.7
• ACUUUAACAUGGAGGCACUUGC [hsa-miR-302d-5p] = -13.5
• UGUAGAGCAGGGAGCAGGAAGCU [hsa-miR-4732-5p] = 6.48
• UCCCUGUCCUCCAGGAGCUCACG [hsa-miR-339-5p] = 0.467

Data provenance: the supplement of paper PMC10899765
